Tested on: Vaccinia-infected cells, mCherry/Venus stage reporter fluorescence
experiment summary: Vaccinia stage specific inhibitors, mCherry reporter channel, infected cells, confirmatory dose response (AID 1053207)
Listed here: items and their measured AC50.

Solved entries:
C[C@@H](O)C#Cc1ccc2c(c1)O[C@@H](CN(C)Cc1ccc(-c3ccccc3Cl)cc1)[C@@H](C)CN([C@@H](C)CO)S2(=O)=O ... 1.19 µM
Cc1ccccc1-c1ccc(CN(C)C[C@@H]2Oc3cc(C#C[C@@H](C)O)ccc3S(=O)(=O)N([C@@H](C)CO)C[C@@H]2C)cc1 ... 1.23 µM
Cc1cccc(-c2ccc(CN(C)C[C@@H]3Oc4cc(C#C[C@@H](C)O)ccc4S(=O)(=O)N([C@@H](C)CO)C[C@@H]3C)cc2)c1 ... 1.66 µM
C[C@@H](O)C#Cc1ccc2c(c1)O[C@@H](CN(C)Cc1ccc(-c3ccccc3)cc1)[C@@H](C)CN([C@@H](C)CO)S2(=O)=O ... 2.35 µM

# ---- query compound ----
query: Please give the documented AC50 of Cc1ccc(-c2ccc(CN(C)C[C@@H]3Oc4cc(C#C[C@@H](C)O)ccc4S(=O)(=O)N([C@@H](C)CO)C[C@@H]3C)cc2)cc1
result: 1.25 µM
